This section presents molecules with their documented cAMP production activity (%) values.
TARGET ENTITY: human PTH1 receptor (Homo sapiens, UniProt Q03431)
Sequence (Q03431 27-593): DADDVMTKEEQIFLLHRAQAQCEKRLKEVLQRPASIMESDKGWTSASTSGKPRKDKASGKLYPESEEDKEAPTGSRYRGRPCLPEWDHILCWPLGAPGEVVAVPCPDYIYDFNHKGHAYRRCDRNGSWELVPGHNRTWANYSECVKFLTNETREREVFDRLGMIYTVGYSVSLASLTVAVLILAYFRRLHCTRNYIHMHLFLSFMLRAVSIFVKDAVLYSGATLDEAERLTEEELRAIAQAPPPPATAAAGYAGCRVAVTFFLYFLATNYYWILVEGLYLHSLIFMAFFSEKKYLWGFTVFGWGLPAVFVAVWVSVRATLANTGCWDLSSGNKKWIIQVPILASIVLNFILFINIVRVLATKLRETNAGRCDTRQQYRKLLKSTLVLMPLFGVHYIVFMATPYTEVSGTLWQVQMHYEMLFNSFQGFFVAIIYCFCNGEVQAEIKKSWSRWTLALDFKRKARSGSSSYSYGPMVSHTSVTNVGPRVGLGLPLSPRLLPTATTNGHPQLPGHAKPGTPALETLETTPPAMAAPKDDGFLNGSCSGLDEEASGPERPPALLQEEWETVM
ASSAY TEXT: In vitro cAMP signal activity in HKRK-B7 cells (LLC-PK1 cells overexpressing the human PTH1 receptor)
Type: cell-based
DETAILS: HKRK-B7 cells; compound at 1×10^−3 M; cAMP produced as percentage of that produced by hPTH(1-34) at 100 nM
Dear colleague, please return just the value in %, with no unit written.

Worked examples, 3 molecules total:
MOLECULE	cAMP production activity (%)
Cc1cc(N(C)C(N)=O)cc(C)c1/C=C/S(=O)(=O)N1CCC2(CC1)N=C(c1ccc(CCCC(F)(F)F)cc1)NC2=O	95
CCC[S+]([O-])CCCCCC1=NC2(CCN(S(=O)(=O)/C=C/c3c(C)cc(N(C)C(N)=O)cc3C)CC2)C(=O)N1 (stereo not drawn)	2.9
Cc1cc(C(=O)N2CCC(O)(CF)CC2)cc(C)c1/C=C/S(=O)(=O)N1CCC2(CC1)N=C(c1ccc(S(F)(F)(F)(F)F)cc1)NC2=O	115

# lookup: cAMP production activity (%) of Cc1cc(N2CCOC2=O)ccc1/C=C/S(=O)(=O)N1CCC2(CC1)N=C(C1CCC(C)CC1)NC2=O (stereo not drawn) 33

What measured cAMP production activity (%) goes with `Cc1cc(S(=O)(=O)NCCCO)ccc1/C=C/S(=O)(=O)N1CCC2(CC1)N=C(c1cccc(OC(F)(F)F)c1)NC2=O` ? 54

Param item = `Cc1cc(N(C)C(N)=O)cc(C)c1CC[S@TB4](=O)(=O)N1CCC2(CC1)N=C(c1cccc(-c3cccc(-c4ccccc4)c3)c1)NC2=O` ; retrieve measured cAMP production activity (%). 83
